- Tested system: T1, 017-mut4 peptide (…)/HLA-A*02:01 complex on T2 cells (human)
- T1 construct: Alanine mutant at position 4
- Assay text: flow cytometry, phage on peptide-loaded T2 cells
Endpoint label: MFI
Respond using a number only.

Examples from the recorded data:
Binder	Result value
EXT017-20 scFv phage clone (scFv, full-length scFv with His+HA tags; also called EXT017-20 phage) scFv: QSVVTQPPSVSAAPGQKVTISCSGSSSNIGAGYDVHWYQQLPGTAPKLLIYGNSNRPSGVPDRFSGSKSGTSASLAITGLQAEDEADYYCQSYDSSLSGSVFGGGTKLTVLGSRGGGGSGGGGSGGGGSLEMAEVQLVQSGAEVKKPGSSVKVSCKASGGTFSSYAISWVRQAPGQGLEWMGGIIPIFGTANYAQKFQGRVTITADESTSTAYMELSSLRSEDTAVYYCARYSYKYGELDTWGQGTLVTVSSTSGQAGQHHHHHHGAYPYDVPDYAS	93.7
EXT017-27 scFv phage clone (scFv, full-length scFv with His+HA tags; also called EXT017-27 phage; phage clone #27) scFv: QAVLTQPPSVSVAPGKTARLTCGGNNIGSESVHWYQQKPGQAPLLVVYDDDDRPSGIPERFSGSNSGNTATLTISRVEAGDEADYYCQVWDRSSDHWFFGGGTKLTVLGSRGGGGSGGGGSGGGGSLEMAQVQLVQSGAEVKKPGASVKVSCKASGYTFTNYYIHWVRQAPGQGLEWMGIIRPSGGITNYAQKFQGRVSMTRDTSTSTVYMELSSLRSEDTAVYYCARSWDYFASNDFWGQGTLVTVSSTSGQAGQHHHHHHGAYPYDVPDYAS	99
EXT017-28 scFv phage clone (scFv, full-length scFv with His+HA tags; also called EXT017-28 phage; phage clone #28) scFv: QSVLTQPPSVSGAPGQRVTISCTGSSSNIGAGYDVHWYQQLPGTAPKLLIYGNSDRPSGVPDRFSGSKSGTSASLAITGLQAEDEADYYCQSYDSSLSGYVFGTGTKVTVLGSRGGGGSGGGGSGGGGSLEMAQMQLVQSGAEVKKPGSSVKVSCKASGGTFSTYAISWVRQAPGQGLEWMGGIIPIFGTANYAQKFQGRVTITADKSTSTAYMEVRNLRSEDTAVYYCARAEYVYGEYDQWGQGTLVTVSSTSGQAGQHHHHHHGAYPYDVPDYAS	108
EXT017-32 scFv phage clone (scFv, also called EXT017-32 phage; phage clone #32) scFv: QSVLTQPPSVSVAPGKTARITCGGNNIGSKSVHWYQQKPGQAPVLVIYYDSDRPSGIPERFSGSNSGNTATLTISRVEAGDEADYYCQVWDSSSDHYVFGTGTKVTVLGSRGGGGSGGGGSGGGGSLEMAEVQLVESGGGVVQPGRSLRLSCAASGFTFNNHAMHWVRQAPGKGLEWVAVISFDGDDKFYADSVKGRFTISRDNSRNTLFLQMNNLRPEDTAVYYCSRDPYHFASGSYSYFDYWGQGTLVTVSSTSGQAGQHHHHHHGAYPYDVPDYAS	20800
EXT017-53 scFv phage clone (scFv, full-length scFv with His+HA tags; also called EXT017-53 phage) scFv: NFMLTQPHSVSESPGKTVTISCTRSSGSIASHYVQWYQQRPGSSPTTVIYENNQRPSGVPDRFSGSIDSSSNSASLTISGLKTEDEADYYCQSYDRSNHVVFGGGTKLTVLGSRGGGGSGGGGSGGGGSLEMAQVQLVQSGAEVKKPGASVKVSCKASGYTFTNYYIHWVRQAPGEGLEWMGIIRPSGGNTNYAQKFQGRVTMTRDTSTRTVYMELSSLRSEDTAVYYCARSWNSRDVDSWGQGTLVTVSSTSGQAGQHHHHHHGAYPYDVPDYAS	95.8

Okay, now this binder:
I'd like to know its MFI. The binder in question is EXT017-17 scFv phage clone (scFv, fusion to the phage coat protein not described; also called EXT017-17 phage; phage clone #17) scFv: QSVLTQPPSVSGAPGQRVTISCTGSSSNIGAGYDVHWYQQLPGTAPKLLIYGNSNRPSGVPDRFSGSKSGTSASLAITGLQAEDEADYYCQSYDSSLSGYVFGTGTKVTVLGSRGGGGSGGGGSGGGGSLEMAEVQLVQSGAEVKKPGSSVKVSCKASGDTFSRYAISWVRQAPGQGLEWMGRIIPIFGTPNYAQKFQGRVTITADEFTSTAYMELSSLRSEDTAMYYCARSIYRYSEYDHWGQGTLVTVSSTSGQAGQHHHHHHGAYPYDVPDYAS
103
